Quick reference for switch fluorescence ratio among some sequences
System: ATP;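 also: ATP exposure 15 min at 22 °C before imaging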
measurement-protocol: switch fluorescence ratio, 500 uM ATP over buffer (Cy3 cluster intensity, sum of 5 cycles each) (fold (ratio)); higher = stronger signal-on switching upon ATP binding; sequences stand for … in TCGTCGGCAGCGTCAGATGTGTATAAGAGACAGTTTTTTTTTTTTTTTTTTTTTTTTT…TC
condition-notes: aptamer strand: ATP DNA aptamer (quencher-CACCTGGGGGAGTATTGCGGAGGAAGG + anchor), 100 nM annealed; ATP concentration: 500 uM

# sequence-input, switch fluorescence ratio
rows = [
    ("GTCACCAGAT", 1),
    ("CCAGAAAAGG", 1.31),
    ("TGCATATAAT", 1.02),
    ("GAACTCTTGT", 1.05),
    ("TTCCAATAGG", 1.13),
    ("GAAAAGGGTT", 0.978),
    ("TGTGAAGGCG", 1.71),
    ("CAGCTGCATT", 1.31),
    ("AGGTCGGAAT", 1.04),
    ("TCGACTATTA", 1.05),
    ("ACCGTCCCCA", 1.26),
    ("AGGTTTTGGA", 0.98),
    ("AGCAAAAGAA", 1.12),
    ("TCGGCGTGGG", 1.01),
    ("GTTGGTTGTT", 0.985),
    ("TTTGTTGTAG", 0.985),
    ("ATAGTTGGAT", 0.98),
    ("AGGAATACTT", 1.07),
    ("AAGGGCAGGT", 1.01),
    ("TGGGCTGCTT", 0.965),
    ("CGCATGTAAC", 3.43),
    ("ATAGTTCTAC", 0.987),
    ("AAAGGGCGAC", 0.973),
    ("GGGGGGCGTT", 0.998),
    ("TGAGTCAAGC", 1.01),
    ("GGTTCGTATT", 0.975),
    ("ATTGTTGATC", 1.01),
    ("TCTCCTGGGA", 1.03),
    ("TGTGGCTATG", 1.02),
    ("TTTGTTTGTG", 1),
    ("GGTTTTATAC", 1.04),
]
